All values here come from patent US20240208992A1.

molecular target: human F508del-CFTR (Homo sapiens, UniProt P13569, DEL508-508); test: F508del-CFTR cell surface expression (corrector activity), DiscoveRx ß-galactosidase complementation chemiluminescence assay in recombinant U2OS cell line; settings: U2OS, in relation to Emax of corrector lumacaftor (=100%); arithmetic mean values
Sequence (P13569 with tags, fused parts or gaps DEL508-508): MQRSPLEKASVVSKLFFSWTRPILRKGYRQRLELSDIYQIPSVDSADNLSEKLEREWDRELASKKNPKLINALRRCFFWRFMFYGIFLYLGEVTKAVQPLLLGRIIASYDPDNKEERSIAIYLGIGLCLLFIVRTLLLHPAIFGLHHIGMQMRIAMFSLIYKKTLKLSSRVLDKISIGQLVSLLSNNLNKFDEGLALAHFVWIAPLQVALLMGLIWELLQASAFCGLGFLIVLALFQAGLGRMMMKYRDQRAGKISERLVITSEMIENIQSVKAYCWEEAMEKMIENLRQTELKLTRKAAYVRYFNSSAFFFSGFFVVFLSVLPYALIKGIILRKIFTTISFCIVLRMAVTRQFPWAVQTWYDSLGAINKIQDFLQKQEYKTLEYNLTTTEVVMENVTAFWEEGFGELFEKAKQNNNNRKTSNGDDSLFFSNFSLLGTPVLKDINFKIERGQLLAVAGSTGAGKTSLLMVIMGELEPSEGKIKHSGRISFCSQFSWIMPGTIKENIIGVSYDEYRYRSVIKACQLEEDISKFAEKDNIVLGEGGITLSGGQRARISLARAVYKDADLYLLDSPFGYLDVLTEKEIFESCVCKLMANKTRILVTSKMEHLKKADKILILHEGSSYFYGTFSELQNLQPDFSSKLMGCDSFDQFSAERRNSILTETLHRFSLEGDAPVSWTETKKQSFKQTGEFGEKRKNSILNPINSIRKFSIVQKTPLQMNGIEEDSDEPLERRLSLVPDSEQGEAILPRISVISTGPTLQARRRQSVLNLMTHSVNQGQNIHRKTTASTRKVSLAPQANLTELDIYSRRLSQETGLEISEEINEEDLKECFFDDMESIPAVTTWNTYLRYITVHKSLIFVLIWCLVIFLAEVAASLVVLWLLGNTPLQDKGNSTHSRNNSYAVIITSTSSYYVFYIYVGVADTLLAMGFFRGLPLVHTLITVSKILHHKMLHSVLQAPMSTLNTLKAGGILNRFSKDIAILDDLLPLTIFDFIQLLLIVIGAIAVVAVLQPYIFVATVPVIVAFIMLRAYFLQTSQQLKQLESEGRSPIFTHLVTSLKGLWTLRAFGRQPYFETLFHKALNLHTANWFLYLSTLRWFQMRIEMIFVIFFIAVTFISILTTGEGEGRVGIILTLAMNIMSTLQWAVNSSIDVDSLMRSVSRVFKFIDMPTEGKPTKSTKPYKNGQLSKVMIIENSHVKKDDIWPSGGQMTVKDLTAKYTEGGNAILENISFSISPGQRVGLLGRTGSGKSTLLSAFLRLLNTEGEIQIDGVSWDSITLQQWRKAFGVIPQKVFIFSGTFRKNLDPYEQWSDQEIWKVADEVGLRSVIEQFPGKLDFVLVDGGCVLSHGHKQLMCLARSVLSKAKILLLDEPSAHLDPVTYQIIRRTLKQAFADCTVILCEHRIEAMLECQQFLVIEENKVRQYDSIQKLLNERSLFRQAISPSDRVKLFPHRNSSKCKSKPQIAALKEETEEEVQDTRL
READOUT_TYPE: Emax (%)
The response must be a number in % with no trailing unit.

Example compounds with recorded Emax:
smiles_record=CC(C)C[C@H]1C(=O)N(C)C2(CC2)C(=O)N[C@H](Cc2ccccc2)COc2cnc3ccccc3c2C(=O)N[C@H](C(=O)NCCc2cc(C3CC3)no2)CC(=O)N1C assay_target="human F508del-CFTR (Homo sapiens, UniProt P13569, DEL508-508)" readout_type=Emax observed_value=344
smiles_record=CC(C)C[C@H]1C(=O)N2CCOC[C@@H]2C(=O)N[C@H](Cc2ccccc2)COc2cnc3ccc(F)cc3c2C(=O)N[C@H](C(=O)NCCc2noc(C3CC3)n2)CC(=O)N1C assay_target="human F508del-CFTR (Homo sapiens, UniProt P13569, DEL508-508)" readout_type=Emax observed_value=273

Now examine the next entry.
Recorded result, "Cc1cc(CCNC(=O)[C@@H]2CC(=O)N(C)[C@@H](CC(C)C)C(=O)N3CCNC[C@@H]3C(=O)N[C@H](Cc3ccccc3)COc3cnc4ccccc4c3C(=O)N2)on1" , Emax: 138

====

target: human F508del-CFTR (Homo sapiens, UniProt P13569, DEL508-508); experiment: F508del-CFTR cell surface expression (corrector activity), DiscoveRx ß-galactosidase complementation chemiluminescence assay in recombinant U2OS cell line; details: U2OS, in relation to Emax of corrector lumacaftor (=100%); arithmetic mean values
READOUT_TYPE: Emax (%)
The response must be a number in % with no trailing unit.

Recorded result, "CC(C)C[C@H]1C(=O)N2CCCC[C@@H]2C(=O)N[C@H](Cc2ccccc2)COc2ccc3ncc(F)cc3c2C(=O)N[C@H](C(=O)NCCc2noc(C3CC3)n2)CC(=O)N1C" , Emax: 357

Recorded result, "Cc1cc2ccc3c(c2o1)C(=O)N[C@H](C(=O)NCCc1cc(C2CC2)no1)CC(=O)N(C)[C@@H](CC(C)C)C(=O)N(C)CC(=O)N[C@H](Cc1ccccc1)CO3" , Emax: 375

Recorded result, "COc1cccc(CCNC(=O)[C@@H]2CC(=O)N(C)[C@@H](CC(C)C)C(=O)N3CCOC[C@@H]3C(=O)N[C@H](Cc3ccccc3)COc3ccc(OC)cc3C(=O)N2)c1" , Emax: 102

Recorded result, "COc1cccc(CCNC(=O)[C@@H]2CC(=O)N(C)[C@@H](CC(C)C)C(=O)N3CCCC[C@@H]3C(=O)N[C@H](Cc3ccccc3)COc3cc4oc(C)nc4cc3C(=O)N2)c1" , Emax: 173

Recorded result, "Cc1cc(CCNC(=O)[C@@H]2CC(=O)N(C)[C@@H](CC(C)C)C(=O)N(C)[C@H](C)C(=O)N[C@H](Cc3ccccc3)COc3cnc4ccccc4c3C(=O)N2)on1" , Emax: 306

====

target: human F508del-CFTR (Homo sapiens, UniProt P13569, DEL508-508); experiment: F508del-CFTR cell surface expression (corrector activity), DiscoveRx ß-galactosidase complementation chemiluminescence assay in recombinant U2OS cell line; details: EC50, F508del-CFTR cell surface expression, U2OS cell line, 16h compound incubation; geomean values
READOUT_TYPE: pEC50
Bear in mind: pEC50 is minus log10 of a mol/L concentration; give just that figure.

Example compounds with recorded pEC50:
compound="CC(C)C[C@H]1C(=O)N(C[C@H]2CCCCO2)CC(=O)N[C@H](Cc2ccccc2)COc2ccc3ccccc3c2C(=O)N[C@H](C(=O)NCCc2ccc3c(c2)OCO3)CC(=O)N1C (mixture of isomers)" readout_type=pEC50 observed_value=6.33
compound=COc1cc(CCNC(=O)[C@@H]2CC(=O)N(C)[C@@H](CC(C)C)C(=O)N3CCCC[C@@H]3C(=O)N[C@H](Cc3ccccc3)COc3ccc4oc(C)nc4c3C(=O)N2)cc(OC)c1 readout_type=pEC50 observed_value=6.04
compound=COc1cccc(CCNC(=O)[C@@H]2CC(=O)N(C)[C@@H](CC(C)C)C(=O)N3CC=CC[C@@H]3C(=O)N[C@H](Cc3ccccc3)COc3ccc4ccccc4c3C(=O)N2)c1 readout_type=pEC50 observed_value=6.81

Field pEC50 (human F508del-CFTR (Homo sapiens, UniProt P13569, DEL508-508)), entry "CCOc1cccc(CCNC(=O)[C@@H]2CC(=O)N(C)[C@@H](CC(C)C)C(=O)N(C)CC(=O)N[C@H](Cc3ccccc3)COc3cc(OC)c(OC)cc3C(=O)N2)c1" : 6.21

Field pEC50 (human F508del-CFTR (Homo sapiens, UniProt P13569, DEL508-508)), entry "COc1cccc2c1C(=O)N[C@H](C(=O)NCCc1cccc(OC(F)F)c1)CC(=O)N(C)[C@@H](CC(C)C)C(=O)N(CCC1CCCCC1)CC(=O)N[C@H](Cc1ccccc1)CO2" : 6.82

====

molecular target: human F508del-CFTR (Homo sapiens, UniProt P13569, DEL508-508); assay: F508del-CFTR cell surface expression (corrector activity), DiscoveRx ß-galactosidase complementation chemiluminescence assay in recombinant U2OS cell line; conditions: EC50, F508del-CFTR cell surface expression, U2OS cell line, 16h compound incubation; geomean values
READOUT_TYPE: EC50 (nM)
The response must be a number in nM with no trailing unit.

Example compounds with recorded EC50:
compound="Cc1noc(CCNC(=O)[C@@H]2CC(=O)N(C)[C@@H](CC(C)C)C(=O)N(C)C3(CC3)C(=O)N[C@H](Cc3ccccc3)COc3cnc4ccc(F)cc4c3C(=O)N2)n1 [Example 146]" readout_type=EC50 observed_value=247
compound="COc1cccc(CCNC(=O)[C@@H]2CC(=O)N(C)[C@@H](CC(C)C)C(=O)N3CCN(C4CCC4)C[C@@H]3C(=O)N[C@H](Cc3ccccc3)COc3ccc4ccccc4c3C(=O)N2)c1 [Example 355]" readout_type=EC50 observed_value=87
compound="CC(C)C[C@H]1C(=O)N2CCOC[C@@H]2C(=O)N[C@H](Cc2ccccc2)COc2ccc3ccccc3c2C(=O)N[C@H](C(=O)NCCc2cccc(OC(F)F)c2)CC(=O)N1C [Example 371]" readout_type=EC50 observed_value=226
compound="[2H]C([2H])([2H])Oc1cccc(CCNC(=O)[C@@H]2CC(=O)N(C)[C@@H](CC(C)C)C(=O)N(CCC3CCCCC3)CC(=O)N[C@H](Cc3ccccc3)COc3cccc(OC([2H])([2H])[2H])c3C(=O)N2)c1 [Example 244]" readout_type=EC50 observed_value=177
compound="CC(C)C[C@H]1C(=O)N2CCOC[C@@H]2C(=O)N[C@H](Cc2ccccc2)COc2cnc3ccccc3c2C(=O)N[C@H](C(=O)NCCc2ccc(F)cc2)CC(=O)N1C [Example 67]" readout_type=EC50 observed_value=615

Field EC50 (human F508del-CFTR (Homo sapiens, UniProt P13569, DEL508-508)), entry Cc1ccccc1CCNC(=O)[C@@H]1CC(=O)N(C)[C@@H](CC(C)C)C(=O)N2CCOC[C@@H]2C(=O)N[C@H](Cc2ccccc2)COc2cnc3ccccc3c2C(=O)N1 [Example 64] : 441

Field EC50 (human F508del-CFTR (Homo sapiens, UniProt P13569, DEL508-508)), entry CC(C)C[C@H]1C(=O)N2CCOC[C@@H]2C(=O)N[C@H](Cc2ccccc2)COc2ccc3ccccc3c2C(=O)N[C@H](C(=O)NCCc2nc(-c3ccccc3)no2)CC(=O)N1C [Example 69] : 454

Field EC50 (human F508del-CFTR (Homo sapiens, UniProt P13569, DEL508-508)), entry CC(C)C[C@H]1C(=O)N(C)C2(CC2)C(=O)N[C@H](Cc2ccccc2)COc2cnc3ccc(F)cc3c2C(=O)N[C@H](C(=O)NCCc2cccc(-c3cnccn3)c2)CC(=O)N1C [Example 134] : 506

Field EC50 (human F508del-CFTR (Homo sapiens, UniProt P13569, DEL508-508)), entry Cc1cc(CCNC(=O)[C@@H]2CC(=O)N(C)[C@@H](CC(C)C)C(=O)N(CCC3CCCCC3)CC(=O)N[C@H](Cc3ccccc3)COc3cnc4ccccc4c3C(=O)N2)on1 [Example 344] : 126

Field EC50 (human F508del-CFTR (Homo sapiens, UniProt P13569, DEL508-508)), entry COc1cccc2c1C(=O)N[C@H](C(=O)NCCc1ccc3c(c1)OCO3)CC(=O)N(C)[C@@H](CC(C)C)C(=O)N(C[C@@H]1CCCCO1)CC(=O)N[C@H](Cc1ccccc1)CO2 [Example 306] : 923

====

Items are presented alongside their recorded pEC50.
molecular target: human F508del-CFTR (Homo sapiens, UniProt P13569, DEL508-508); assay: F508del-CFTR cell surface expression (corrector activity), DiscoveRx ß-galactosidase complementation chemiluminescence assay in recombinant U2OS cell line; settings: EC50, F508del-CFTR cell surface expression, U2OS cells, 16h compound incubation; geomean values;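 also: U2OS cells co-expressing ProLink-tagged F508del-CFTR and a membrane-anchored enzyme acceptor, where more surface CFTR restores β-galactosidase activity measured by chemiluminescence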
Bear in mind: pEC50 is minus log10 of a mol/L concentration; give just that figure.

molecule="Cc1cc(CCNC(=O)[C@@H]2CC(=O)N(C)[C@@H](CC(C)C)C(=O)N3CCN(S(=O)(=O)c4ccc5c(c4)OCCN5C)C[C@@H]3C(=O)N[C@H](Cc3ccccc3)COc3cnc4ccccc4c3C(=O)N2)on1 [Example 748]" assay_target="human F508del-CFTR (Homo sapiens, UniProt P13569, DEL508-508)" readout_type=pEC50 observed_value=6.28
molecule="Cc1cc(CCNC(=O)[C@@H]2CC(=O)N(C)[C@@H](CC3CCCC3)C(=O)N3CCCC[C@@H]3C(=O)N[C@H](Cc3ccccc3)COc3ccc4nc(C)oc4c3C(=O)N2)on1 [Example 436]" assay_target="human F508del-CFTR (Homo sapiens, UniProt P13569, DEL508-508)" readout_type=pEC50 observed_value=6.34
molecule="COc1cccc(CCNC(=O)[C@@H]2CC(=O)N(C)[C@@H](CC(C)C)C(=O)N(C)C3(CC3)C(=O)N[C@H](Cc3ccccc3)COc3ccc4c(c3C(=O)N2)OCC4)c1 [Example 447]" assay_target="human F508del-CFTR (Homo sapiens, UniProt P13569, DEL508-508)" readout_type=pEC50 observed_value=6.35
molecule="Cc1noc2c3c(ccc12)OC[C@@H](Cc1ccccc1)NC(=O)[C@H]1CCCCN1C(=O)[C@H](CC(C)C)N(C)C(=O)C[C@@H](C(=O)NCCc1c(F)cccc1F)NC3=O [Example 634]" assay_target="human F508del-CFTR (Homo sapiens, UniProt P13569, DEL508-508)" readout_type=pEC50 observed_value=6.76
molecule="CC(C)C[C@H]1C(=O)N2CCCC[C@@H]2C(=O)N[C@H](Cc2ccccc2)COc2ccc3ncc(F)cc3c2C(=O)N[C@H](C(=O)NCCc2cc(C3CC3)no2)CC(=O)N1C [Example 655]" assay_target="human F508del-CFTR (Homo sapiens, UniProt P13569, DEL508-508)" readout_type=pEC50 observed_value=6.82

Recorded result, CC(C)C[C@H]1C(=O)N2CC[C@@H](c3ccccc3)C[C@H]2C(=O)N[C@H](Cc2ccccc2)COc2cnc3ccccc3c2C(=O)N[C@H](C(=O)NCCc2cc(C3CC3)no2)CC(=O)N1C [Example 675] , pEC50: 6.71

Recorded result, CC(C)C[C@H]1C(=O)N(C)C2(CCC2)C(=O)N[C@H](Cc2ccccc2)COc2cnc3ccc(F)cc3c2C(=O)N[C@H](C(=O)NCCc2cc(C3CC3)no2)CC(=O)N1C [Example 689] , pEC50: 6.61

Recorded result, CC(C)C[C@H]1C(=O)N2CCCC[C@@H]2C(=O)N[C@H](Cc2ccccc2)COc2cnc3cccc(F)c3c2C(=O)N[C@H](C(=O)NCCc2noc(C3CC3)n2)CC(=O)N1C [Example 563] , pEC50: 6.90

Recorded result, COc1nccc2c1C(=O)N[C@H](C(=O)NCCc1cc(C3CC3)no1)CC(=O)N(C)[C@@H](CC(C)C)C(=O)N1CC[C@H](c3ccccc3)C[C@H]1C(=O)N[C@H](Cc1ccccc1)CO2 [Example 670] , pEC50: 6.45
